- tgt: human recombinant PLK4 (Homo sapiens (Human))
- Sequence (O00444 whole entry): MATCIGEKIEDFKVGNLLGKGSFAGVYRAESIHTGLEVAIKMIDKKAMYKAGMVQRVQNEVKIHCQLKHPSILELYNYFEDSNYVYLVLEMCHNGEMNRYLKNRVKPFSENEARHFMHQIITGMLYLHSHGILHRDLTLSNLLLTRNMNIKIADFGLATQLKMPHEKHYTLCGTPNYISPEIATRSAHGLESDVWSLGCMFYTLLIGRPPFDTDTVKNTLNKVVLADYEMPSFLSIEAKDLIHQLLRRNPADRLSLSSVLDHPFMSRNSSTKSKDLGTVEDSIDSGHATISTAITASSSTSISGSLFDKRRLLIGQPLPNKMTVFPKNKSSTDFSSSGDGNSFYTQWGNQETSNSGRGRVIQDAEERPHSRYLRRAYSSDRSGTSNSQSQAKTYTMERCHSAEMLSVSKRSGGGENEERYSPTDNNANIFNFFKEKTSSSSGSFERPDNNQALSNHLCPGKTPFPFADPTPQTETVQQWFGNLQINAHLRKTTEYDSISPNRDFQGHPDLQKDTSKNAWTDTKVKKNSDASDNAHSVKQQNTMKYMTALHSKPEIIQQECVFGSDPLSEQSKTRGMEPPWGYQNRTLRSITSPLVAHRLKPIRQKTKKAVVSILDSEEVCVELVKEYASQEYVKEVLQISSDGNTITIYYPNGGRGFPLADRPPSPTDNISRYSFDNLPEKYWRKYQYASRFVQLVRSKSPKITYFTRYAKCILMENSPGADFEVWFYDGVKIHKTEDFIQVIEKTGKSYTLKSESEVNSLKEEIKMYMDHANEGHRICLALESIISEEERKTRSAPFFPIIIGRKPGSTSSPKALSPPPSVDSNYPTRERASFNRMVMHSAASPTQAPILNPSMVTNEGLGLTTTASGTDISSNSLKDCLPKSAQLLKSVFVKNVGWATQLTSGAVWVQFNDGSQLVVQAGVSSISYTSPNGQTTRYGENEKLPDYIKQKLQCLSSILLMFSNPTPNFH
- test: PLK4 Biochemical Assay (ADP-Glo)
- test.conditions: 0.5 nM PLK4, 8.0 µM ATP, 4.7 µM MBP, 6 hours at RT
IC50 listing for selected molecules.

Sample records with IC50:
molecule: COc1ccc2c(c1)[C@]1(C[C@H]1c1ccc3c(Nc4ccc(C(=O)N(C5CC5)C5CC5)nc4OC)n[nH]c3c1)C(=O)N2
IC50: 1.15 nM
--
molecule: COc1ccc2c(c1)[C@]1(C[C@H]1c1ccc3c(Nc4nc(C)nc(N5CC(O)C5)c4Cl)n[nH]c3c1)C(=O)N2
IC50: 0.997 nM
--
molecule: COc1ccc2c(c1)[C@]1(C[C@H]1c1ccc3c(Nc4cc(N5CC(O)C5)nc(C(C)C)n4)n[nH]c3c1)C(=O)N2
IC50: 1.53 nM
--
molecule: COc1ccc2c(c1)[C@]1(C[C@H]1c1ccc3c(Nc4nc(N5CCS(=O)(=O)CC5)ncc4OC)n[nH]c3c1)C(=O)N2
IC50: 2.66 nM

# IC50 (molecule: COc1ccc2c(c1)[C@]1(C[C@H]1c1ccc3c(Nc4ncnc(N5CC(O)C5)c4Cl)n[nH]c3c1)C(=O)N2C ) is 5.7 nM

# IC50 (molecule: COc1ccc2c(c1)[C@]1(C[C@H]1c1ccc3c(Nc4nc(C)nc5c4OCC5)n[nH]c3c1)C(=O)N2 ) is 1.91 nM

Provenance of the data: patent US20230365537A1
